The reported numbers originate from ChEMBL document CHEMBL3727350.

# SYSTEM_NAME: Transient receptor potential cation channel subfamily M member 7 (Mus musculus) (UniProt Q923J1)
# Sequence (Q923J1 whole entry): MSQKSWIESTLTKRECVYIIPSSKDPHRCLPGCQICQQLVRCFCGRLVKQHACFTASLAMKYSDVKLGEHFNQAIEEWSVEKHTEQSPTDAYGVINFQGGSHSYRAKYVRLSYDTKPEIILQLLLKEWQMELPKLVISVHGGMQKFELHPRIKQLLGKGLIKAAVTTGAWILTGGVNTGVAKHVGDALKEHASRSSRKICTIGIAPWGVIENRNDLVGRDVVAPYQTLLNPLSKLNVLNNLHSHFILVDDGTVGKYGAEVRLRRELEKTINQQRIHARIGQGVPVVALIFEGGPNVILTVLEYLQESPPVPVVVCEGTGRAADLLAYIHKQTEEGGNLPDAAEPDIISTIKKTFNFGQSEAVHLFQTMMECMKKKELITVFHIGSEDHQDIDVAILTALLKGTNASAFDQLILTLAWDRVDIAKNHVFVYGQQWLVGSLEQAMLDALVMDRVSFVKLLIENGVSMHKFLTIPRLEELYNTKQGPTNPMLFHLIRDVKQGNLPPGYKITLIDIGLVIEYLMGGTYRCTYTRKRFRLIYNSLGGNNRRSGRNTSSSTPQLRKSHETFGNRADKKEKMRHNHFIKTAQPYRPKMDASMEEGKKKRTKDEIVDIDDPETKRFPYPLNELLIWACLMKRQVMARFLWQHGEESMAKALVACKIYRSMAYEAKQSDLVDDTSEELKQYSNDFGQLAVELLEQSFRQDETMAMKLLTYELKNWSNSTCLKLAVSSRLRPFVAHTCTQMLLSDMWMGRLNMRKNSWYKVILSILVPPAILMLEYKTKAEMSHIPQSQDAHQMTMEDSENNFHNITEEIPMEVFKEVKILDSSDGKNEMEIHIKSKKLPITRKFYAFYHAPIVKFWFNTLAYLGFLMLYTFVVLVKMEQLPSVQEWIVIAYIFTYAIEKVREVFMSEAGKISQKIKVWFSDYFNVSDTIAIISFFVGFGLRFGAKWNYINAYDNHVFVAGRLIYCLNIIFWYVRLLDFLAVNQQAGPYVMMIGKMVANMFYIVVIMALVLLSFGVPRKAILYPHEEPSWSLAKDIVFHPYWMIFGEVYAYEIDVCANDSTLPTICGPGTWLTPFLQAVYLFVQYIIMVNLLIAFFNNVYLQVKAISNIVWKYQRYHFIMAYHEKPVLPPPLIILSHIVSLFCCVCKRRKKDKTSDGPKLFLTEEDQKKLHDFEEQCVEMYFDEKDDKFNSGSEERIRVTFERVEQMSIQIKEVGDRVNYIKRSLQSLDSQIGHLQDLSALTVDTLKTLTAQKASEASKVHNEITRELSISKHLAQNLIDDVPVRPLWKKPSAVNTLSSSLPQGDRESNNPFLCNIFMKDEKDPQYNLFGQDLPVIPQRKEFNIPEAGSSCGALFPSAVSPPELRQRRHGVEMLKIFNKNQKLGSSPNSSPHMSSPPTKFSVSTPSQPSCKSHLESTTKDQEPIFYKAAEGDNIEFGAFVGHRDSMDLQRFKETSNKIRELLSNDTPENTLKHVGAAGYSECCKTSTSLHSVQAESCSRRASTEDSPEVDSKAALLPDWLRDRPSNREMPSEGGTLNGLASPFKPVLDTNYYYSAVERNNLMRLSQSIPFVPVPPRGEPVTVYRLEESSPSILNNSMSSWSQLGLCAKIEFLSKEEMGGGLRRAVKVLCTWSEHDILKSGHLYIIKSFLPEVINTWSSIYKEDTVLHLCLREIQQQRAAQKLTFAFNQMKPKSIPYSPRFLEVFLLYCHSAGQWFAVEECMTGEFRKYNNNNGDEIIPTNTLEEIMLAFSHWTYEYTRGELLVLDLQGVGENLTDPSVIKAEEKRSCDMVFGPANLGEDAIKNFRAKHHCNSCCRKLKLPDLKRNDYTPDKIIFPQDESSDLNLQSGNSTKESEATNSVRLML
# METHOD_SUMMARY: Inhibition of Tet-induced Flag-tagged mouse TRPM7 expressed in HEK293 cells assessed as inhibition of channel-mediated cell death in presence of Mg2+ incubated for 24 to 48 hrs by propidium iodide uptake assay
# Format: cell-based
# Set-up: concentration or dose not given beside the values
# CONDITION_INFO: concentration not given here
PARAMETER: inhibition

Entry Cc1cc(SCc2nnc(-c3ccc([N+](=O)[O-])c(C)c3)o2)c(C)cc1Cl ; inhibition = 80%

Entry CC(=O)Nc1ccc(S(=O)(=O)Nc2ccccc2Oc2ccc(Cl)cc2Cl)cc1 ; inhibition = 80%

Entry C/C=C(\C)C(=O)Nc1nncs1 ; inhibition = < 30%

Entry COc1ccc(-c2n[nH]cc2CN2CCN(c3ccccc3OC)CC2)cc1 ; inhibition = < 30%

Entry O=[N+]([O-])c1ccc(-n2ncc(-c3nc(-c4ccc(Cl)cc4)no3)c2C(F)(F)F)cc1 ; inhibition = < 30%

Entry Cc1c(S(=O)(=O)Nc2ccc(Cl)cc2)sc2ccc(Cl)cc12 ; inhibition = < 30%

Entry OC(COc1ccc(F)cc1)CN1CCN(Cc2c(F)cccc2Cl)CC1 (stereo unspecified) ; inhibition = 30%

Entry CC(C)NC(=S)Nc1ccc2c(c1)S(=O)(=O)C=C2 ; inhibition = < 30%

Entry N#C/C(=N\Nc1ccc(Cl)c(Cl)c1)C(=O)C1CC1 ; inhibition = 40%

Entry CC(=O)c1ccc(Nc2cc(C)nc3ccccc23)cc1 ; inhibition = < 30%

Entry CCOC(=O)C1=C(C)NC(=O)NC1c1cccc2ccccc12 (stereo unspecified) ; inhibition = < 30%
